- subject.of.test: Glucocorticoid receptor (Homo sapiens, UniProt P04150)
- Sequence (P04150 whole entry): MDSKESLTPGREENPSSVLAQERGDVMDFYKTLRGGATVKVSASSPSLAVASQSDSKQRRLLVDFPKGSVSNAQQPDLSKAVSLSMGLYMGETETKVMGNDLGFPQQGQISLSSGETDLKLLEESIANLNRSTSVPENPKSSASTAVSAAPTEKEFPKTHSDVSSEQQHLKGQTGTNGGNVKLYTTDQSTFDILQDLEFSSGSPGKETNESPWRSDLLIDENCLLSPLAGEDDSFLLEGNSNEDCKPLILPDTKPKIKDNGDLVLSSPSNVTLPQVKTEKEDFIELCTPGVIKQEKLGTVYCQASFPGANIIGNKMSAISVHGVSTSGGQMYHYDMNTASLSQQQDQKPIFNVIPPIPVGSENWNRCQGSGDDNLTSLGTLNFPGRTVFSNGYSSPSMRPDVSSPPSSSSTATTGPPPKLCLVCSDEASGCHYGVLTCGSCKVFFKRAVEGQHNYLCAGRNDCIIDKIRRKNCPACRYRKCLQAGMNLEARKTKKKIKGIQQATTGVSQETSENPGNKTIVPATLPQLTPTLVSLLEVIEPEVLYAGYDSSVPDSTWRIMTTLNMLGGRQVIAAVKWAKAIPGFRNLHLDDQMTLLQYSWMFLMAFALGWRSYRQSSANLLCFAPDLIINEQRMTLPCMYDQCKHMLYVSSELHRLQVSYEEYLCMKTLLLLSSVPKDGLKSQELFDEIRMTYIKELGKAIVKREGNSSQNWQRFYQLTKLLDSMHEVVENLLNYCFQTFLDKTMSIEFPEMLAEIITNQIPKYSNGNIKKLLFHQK
- protocol.details: Binding affinity towards human glucocorticoid receptor (GR) was determined using [3H]dexamethasone as radioligand in […] cells
- Type: cell-based
Could you mark each record Yes if its Ki falls strictly under 60 nM, and No if it equals or exceeds it?

Answered examples (3):
>  <molecule>
C#CCOc1cccc2c1-c1ccc3c(c1C(CC=C)O2)C(C)=CC(C)(C)N3 (stereo not drawn)

>  <subject.of.test>
Glucocorticoid receptor (Homo sapiens, UniProt P04150)

>  <answer.label>
Yes

$$$$
>  <molecule>
C=CCC1Oc2cccc(OC(F)F)c2-c2ccc3c(c21)C(C)=CC(C)(C)N3 (stereo not drawn)

>  <subject.of.test>
Glucocorticoid receptor (Homo sapiens, UniProt P04150)

>  <answer.label>
Yes

$$$$
>  <molecule>
C=CCC1Oc2cccc(O)c2-c2ccc3c(c21)C(C)=CC(C)(C)N3 (stereo not drawn)

>  <subject.of.test>
Glucocorticoid receptor (Homo sapiens, UniProt P04150)

>  <answer.label>
Yes

$$$$

Could you please tell me whether Ki recorded for C=CCOc1cccc2c1-c1ccc3c(c1C(CC=C)O2)C(C)=CC(C)(C)N3 (stereo not drawn) is less than 60 nM?
No

How about C=CCC1Oc2ccc(Cl)c(OC)c2-c2ccc3c(c21)C(C)=CC(C)(C)N3 (stereo not drawn) ?
Yes

How about C=CCC1Oc2cccc(OCC)c2-c2ccc3c(c21)C(C)=CC(C)(C)N3 (stereo not drawn) ?
No

How about C#Cc1cccc2c1-c1ccc3c(c1C(CC=C)O2)C(C)=CC(C)(C)N3 (stereo not drawn) ?
Yes

How about C=CCC1Oc2cccc(OCc3ccccc3)c2-c2ccc3c(c21)C(C)=CC(C)(C)N3 (stereo not drawn) ?
No

How about C=CCC1Oc2c(C=C)ccc(OC)c2-c2ccc3c(c21)C(C)=CC(C)(C)N3 (stereo not drawn) ?
Yes

How about C=CCC1Oc2cccc(C(=O)OC)c2-c2ccc3c(c21)C(C)=CC(C)(C)N3 (stereo not drawn) ?
No

How about C=CCC1Oc2ccccc2-c2ccc3c(c21)C(C)=CC(C)(C)N3 (stereo not drawn) ?
Yes

How about C=CCC1Oc2cccc(C=C)c2-c2ccc3c(c21)C(C)=CC(C)(C)N3 (stereo not drawn) ?
Yes

How about C=CCC1Oc2cccc(OCC3CC3)c2-c2ccc3c(c21)C(C)=CC(C)(C)N3 (stereo not drawn) ?
No

---

- subject.of.test: Progesterone receptor (Homo sapiens)
- Sequence (P06401 whole entry): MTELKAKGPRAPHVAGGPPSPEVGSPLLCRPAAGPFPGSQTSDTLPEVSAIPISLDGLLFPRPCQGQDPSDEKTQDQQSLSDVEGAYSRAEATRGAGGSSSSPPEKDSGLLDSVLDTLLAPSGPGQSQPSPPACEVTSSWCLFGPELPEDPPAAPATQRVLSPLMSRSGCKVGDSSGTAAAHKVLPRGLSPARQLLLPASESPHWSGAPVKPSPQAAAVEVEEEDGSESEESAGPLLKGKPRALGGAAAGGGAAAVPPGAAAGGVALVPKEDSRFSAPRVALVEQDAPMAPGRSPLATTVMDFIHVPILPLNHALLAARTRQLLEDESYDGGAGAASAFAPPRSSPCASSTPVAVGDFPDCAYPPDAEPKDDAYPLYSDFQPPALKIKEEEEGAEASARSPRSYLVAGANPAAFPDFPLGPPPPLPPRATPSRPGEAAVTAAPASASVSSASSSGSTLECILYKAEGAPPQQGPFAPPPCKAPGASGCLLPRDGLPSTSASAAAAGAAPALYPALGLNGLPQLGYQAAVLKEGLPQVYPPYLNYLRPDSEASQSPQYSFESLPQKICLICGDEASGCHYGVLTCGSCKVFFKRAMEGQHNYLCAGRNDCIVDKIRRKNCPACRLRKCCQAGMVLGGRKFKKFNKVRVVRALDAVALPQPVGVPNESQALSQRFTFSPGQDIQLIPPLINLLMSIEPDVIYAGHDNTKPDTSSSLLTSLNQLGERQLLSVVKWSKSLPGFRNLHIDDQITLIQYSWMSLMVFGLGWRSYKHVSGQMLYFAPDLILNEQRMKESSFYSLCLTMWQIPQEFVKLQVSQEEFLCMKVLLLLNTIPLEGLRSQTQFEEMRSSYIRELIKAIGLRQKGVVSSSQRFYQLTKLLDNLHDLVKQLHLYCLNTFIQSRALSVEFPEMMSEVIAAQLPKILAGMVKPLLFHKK
- protocol.details: Displacement of [3H]progesterone from human Progesterone receptor A
value.kind: pKi
// pKi is dimensionless: -log10 of concentration (M)

>  <compound>
C=CCC1Oc2cccc(OC(F)F)c2-c2ccc3c(c21)C(C)=CC(C)(C)N3 (stereo not drawn)

>  <pKi>
6.46

$$$$

Next:
// pKi lookup, key: C=CCC1Oc2cccc(NC)c2-c2ccc3c(c21)C(C)=CC(C)(C)N3 (stereo not drawn)
5.53
